Every entry's value here was drawn from the supplement of paper PMC10065799.

molecular target: FGFR1 (UniProt P11362); assay: phosphorylation enrichment, bacterial display (enrichment ratio); higher = better substrate or ligand; peptides without Tyr show the background;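 also: 11-residue human phosphosite peptides and single-mutation variants displayed on the E. coli surface, counted by deep sequencing, each peptide's frequency after selection divided by its frequency in the unselected input library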;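 also: frequency after pTyr selection over input frequency; kinase dosed for 20-30% of maximal phosphorylation in three min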
Sequence (P11362 whole entry, looked up): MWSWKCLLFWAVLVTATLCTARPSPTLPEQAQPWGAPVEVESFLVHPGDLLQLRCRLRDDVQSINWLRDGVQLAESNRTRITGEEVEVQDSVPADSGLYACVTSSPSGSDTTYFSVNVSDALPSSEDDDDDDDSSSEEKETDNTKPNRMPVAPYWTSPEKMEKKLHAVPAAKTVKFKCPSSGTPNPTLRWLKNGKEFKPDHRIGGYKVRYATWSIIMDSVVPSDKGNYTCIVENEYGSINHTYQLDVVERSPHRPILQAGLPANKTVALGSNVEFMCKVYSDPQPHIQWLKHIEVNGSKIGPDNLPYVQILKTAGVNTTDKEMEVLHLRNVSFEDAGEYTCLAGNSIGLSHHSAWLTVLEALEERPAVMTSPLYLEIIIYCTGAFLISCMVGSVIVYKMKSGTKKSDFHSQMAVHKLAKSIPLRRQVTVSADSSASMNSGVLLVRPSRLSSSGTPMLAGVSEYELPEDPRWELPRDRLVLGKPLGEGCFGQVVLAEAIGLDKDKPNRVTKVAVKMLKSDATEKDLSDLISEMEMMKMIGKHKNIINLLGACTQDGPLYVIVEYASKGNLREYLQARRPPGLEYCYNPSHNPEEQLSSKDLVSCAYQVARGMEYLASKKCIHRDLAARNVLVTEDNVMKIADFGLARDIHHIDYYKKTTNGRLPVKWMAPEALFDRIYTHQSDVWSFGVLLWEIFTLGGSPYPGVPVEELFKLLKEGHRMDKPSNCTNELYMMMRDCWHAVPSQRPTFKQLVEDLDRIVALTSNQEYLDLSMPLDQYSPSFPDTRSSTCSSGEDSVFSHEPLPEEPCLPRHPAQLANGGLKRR
REPORTED METRIC: phosphorylation enrichment

Request: Observed phosphorylation enrichment on FGFR1 (UniProt P11362) for CSRHFYQLTKL [AR_Y858_R856H] , please.
Response: 0.705

Request: Record: VGSIEYLKREW [KCNMA1_Y885]
Response: 0.523

Request: Record: DGMADYSDPSF [CDC5L_Y459_YF]
Response: 0.911

Request: Record: SVMAEYGLFAA [VSX2_Y219_G223A_YF]
Response: 0.505

Request: Record: IFGVSYDEYRY [CFTR_Y512]
Response: 0.688

Request: Record: EVTRLYGSVCD [TC2N_Y154_K151T]
Response: 0.557

Request: Record: PYRFIYMAVQH [PTPN11_Y515_Q510P]
Response: 1.87

---

tested on: Fer (mouse); assay: phosphorylation enrichment, bacterial display (enrichment ratio); higher = better substrate or ligand; peptides without Tyr show the background
REPORTED METRIC: phosphorylation enrichment
Enter the number alone.

Request: Please give the measured phosphorylation enrichment for this sequence: VVAHHYSFAPD [TNS3_Y601_Q600H]
Response: 0.499

Request: Record: FLAVGYHQPHI [IDS_Y225_K227Q]
Response: 0.35

Request: Record: PIDLFYLMDLS [ITGB2_Y131_YF]
Response: 0.426

Request: Record: ISGLKYPVSQQ [BTK_Y375_R372G]
Response: 0.371

Request: Record: VNKIYYPDFIV [LIG3_Y768]
Response: 0.494

Request: Record: PLQNTYNFNVL [SLC4A1_Y553_K551N_YF]
Response: 0.812

Request: Record: KIKLNYTLPQD [NRAP_Y523_N519I]
Response: 0.513

Request: Record: LVRPPYSFLAL [FOXI1_Y126_S129L_YF]
Response: 1.22

Request: Record: VRTGIYHGGKP [PIK3CA_Y361_E365K]
Response: 0.359

Request: Record: PEADKYRLPFA [FGG_Y300_T303P_YF]
Response: 0.512

Request: Record: SEKISYVYMKR [SSX7_Y48_L43S]
Response: 0.387

Request: Record: HAVFVCDICHV [TWNK_Y508_Y508C_YF]
Response: 0.696

Request: Record: EWKQKYEESQS [MYH6_Y1462]
Response: 0.44

---

target: Fyn (UniProt P06241); test: phosphorylation enrichment, bacterial display (enrichment ratio); higher = better substrate or ligand; peptides without Tyr show the background
Sequence (P06241 whole entry, looked up): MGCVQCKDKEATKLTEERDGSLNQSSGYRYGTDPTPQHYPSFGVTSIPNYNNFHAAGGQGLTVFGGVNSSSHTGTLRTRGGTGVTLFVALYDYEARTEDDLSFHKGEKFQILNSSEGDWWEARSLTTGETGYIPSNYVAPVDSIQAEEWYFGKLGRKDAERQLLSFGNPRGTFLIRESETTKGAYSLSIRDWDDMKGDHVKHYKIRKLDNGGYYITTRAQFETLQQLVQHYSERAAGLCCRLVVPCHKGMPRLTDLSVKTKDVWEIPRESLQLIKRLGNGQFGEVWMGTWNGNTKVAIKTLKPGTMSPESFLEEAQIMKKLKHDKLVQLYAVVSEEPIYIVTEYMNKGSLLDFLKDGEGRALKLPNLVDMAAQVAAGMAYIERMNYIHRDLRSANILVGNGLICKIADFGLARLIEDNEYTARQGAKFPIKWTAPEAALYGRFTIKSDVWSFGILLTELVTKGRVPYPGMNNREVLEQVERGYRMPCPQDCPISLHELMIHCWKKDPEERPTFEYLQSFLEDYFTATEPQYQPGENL
I'd appreciate it if you could supply phosphorylation enrichment values for the items below.
Enter the number alone.

Request: Observed phosphorylation enrichment on Fyn (UniProt P06241) for FSGLAYTMERS [GLUD1_Y512_H507Y_YF] , please.
Response: 0.544

Request: Record: LIDGYYRLTED [JAK2_Y373_A377E]
Response: 0.625

Request: Record: SRIWVYNHFRC [BRCA2_Y2621_W2626C_YF]
Response: 0.547

Request: Record: EEQKKYFNAMK [SCN5A_Y1494_YF]
Response: 0.489

Request: Record: KKILCYIQGGS [HYDIN_Y4610_N4606K]
Response: 0.499

Request: Record: DQNVEYKGTVS [FHL1_Y117_W122S]
Response: 0.422

Request: Record: TGNGFYFRVFS [MYBPC3_Y1136_I1131T_YF]
Response: 0.393

Request: Record: VSNFNYFYHRE [KCNA1_Y413]
Response: 0.433

Request: Record: DEEEEYEFMNR [ERBB3_Y1197_D1194E_YF]
Response: 0.512

Request: Record: FPCSVYMPDEW [INSR_Y1011_V1012M]
Response: 0.875

Request: Record: RKLASYQSCLL [DHX37_Y1080_R1081Q]
Response: 0.901

Request: Record: IRKAEYPFSSE [ATP2C1_Y452]
Response: 0.363

Request: Record: RSSKMYFKTRS [LPL_Y329_L330F]
Response: 0.667

Request: Record: RRIHSNRGHLW [VHL_Y112_Y112N]
Response: 0.574

Request: Record: EKHGQYLIGHG [EPHB4_Y581_D576E]
Response: 0.42

Request: Record: MSLRSYGSWEG [APC_Y96_R99W]
Response: 0.633

Request: Record: MIRSTYALGGL [CPS1_Y590_A589T]
Response: 0.466

Request: Record: VVQGIYGFHHH [UFSP2_Y285_Y290H_YF]
Response: 11.7

Request: Record: YKRAVYCIIGR [NUP93_Y391]
Response: 0.59

Request: Record: ANFTEYVATSW [CDKL5_Y171_R175S_YF]
Response: 0.555

Request: Record: TGFRPYVCPFD [YY1_Y383_D380Y_YF]
Response: 0.4

Request: Record: FPQARYHWLVL [APTX_Y214_K211Q_YF]
Response: 0.459

Request: Record: ELPEKYSQNIY [PKP2_Y626]
Response: 0.762

Request: Record: MMVGAYSSLEG [ECPAS_Y470_T472S]
Response: 0.533

Request: Record: FADIAYIYRHG [PAH_Y166_N167I]
Response: 0.432

Request: Record: VGSIKYLKREW [KCNMA1_Y885_E884K]
Response: 0.395

Request: Record: EKSREYHRLFE [PIK3R1_Y463_D464H_YF]
Response: 0.358

Request: Record: MHDKEYFSVHN [MET_Y1234_Y1230H_YF]
Response: 0.53
